The measured values listed here are drawn from ChEMBL document CHEMBL3352380.

system: Mycobacterium tuberculosis; assay: Antimicrobial activity against extensively drug-resistant Mycobacterium tuberculosis XDR-TB after 28 days by two-fold agar dilution method; format: functional; details: 672 h
Assignment: determine reported MIC for the given molecules.
A number alone suffices; assume µM.

query: // returns reported MIC for input NNC(=O)c1ccncc1
result: 45.6

query: // returns reported MIC for input O=C(Cn1c(=O)oc2ccccc21)NCc1ccco1
result: 11.5

query: // returns reported MIC for input O=C(Cn1c(=O)oc2ccccc21)Nc1nc2ccccc2s1
result: 38.4

====

test system: Mycobacterium tuberculosis; experiment: Antimicrobial activity against extensively drug-resistant Mycobacterium tuberculosis XDR-TB after 28 days by two-fold agar dilution method; assay type: functional; settings: 672 h
MIC strictly under 20 µM means 1; at 20 µM or over means 0.

query: Is it true that MIC reported for O=C(Cn1c(=O)oc2cc([N+](=O)[O-])ccc21)Nc1ncc([N+](=O)[O-])s1 is less than 20 µM?
result: 1

query: Is it true that MIC reported for O=C(Cn1c(=O)oc2cc(Cl)ccc21)Nc1ncc([N+](=O)[O-])s1 is less than 20 µM?
result: 1

query: Is it true that MIC reported for CC[C@@H](CO)NCCN[C@@H](CC)CO is less than 20 µM?
result: 0

query: Is it true that MIC reported for O=C(Cn1c(=O)oc2cc([N+](=O)[O-])ccc21)Nc1nc2ccc([N+](=O)[O-])cc2s1 is less than 20 µM?
result: 1

query: Is it true that MIC reported for O=C(Cn1c(=O)oc2ccccc21)NCc1cccs1 is less than 20 µM?
result: 0

query: Is it true that MIC reported for O=C(Cn1c(=O)oc2cc(Cl)ccc21)Nc1nc2ccccc2s1 is less than 20 µM?
result: 0

query: Is it true that MIC reported for CO[C@H]1/C=C/O[C@@]2(C)Oc3c(C)c(O)c4c(O)c(c(/C=N/N5CCN(C)CC5)c(O)c4c3C2=O)NC(=O)/C(C)=C\C=C\[C@H](C)[C@H](O)[C@@H](C)[C@@H](O)[C@@H](C)[C@H](OC(C)=O)[C@@H]1C is less than 20 µM?
result: 0

query: Is it true that MIC reported for O=C(Cn1c(=O)oc2cc([N+](=O)[O-])ccc21)NCc1cccs1 is less than 20 µM?
result: 1
